TESTED SYSTEM: GLP-1R (Homo sapiens, UniProt P43220)
Sequence (P43220 24-463): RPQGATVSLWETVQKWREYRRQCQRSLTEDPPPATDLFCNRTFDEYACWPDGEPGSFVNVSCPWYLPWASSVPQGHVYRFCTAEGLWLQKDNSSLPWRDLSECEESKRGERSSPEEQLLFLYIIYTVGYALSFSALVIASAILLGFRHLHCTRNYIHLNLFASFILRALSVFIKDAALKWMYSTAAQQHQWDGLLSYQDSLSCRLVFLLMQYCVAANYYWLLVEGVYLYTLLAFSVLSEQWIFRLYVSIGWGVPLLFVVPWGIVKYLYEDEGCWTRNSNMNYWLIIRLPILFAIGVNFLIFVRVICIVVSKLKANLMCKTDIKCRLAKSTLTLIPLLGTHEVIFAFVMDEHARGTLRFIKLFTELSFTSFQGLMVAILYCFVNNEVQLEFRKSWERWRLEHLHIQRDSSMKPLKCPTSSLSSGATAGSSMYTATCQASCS
MEASUREMENT DESCRIPTION: GLP-1R agonist cAMP stimulation assay (HTRF cAMP)
TEST PARAMETERS: HEK293 cell line expressing GLP-1 target; HTRF cAMP agonist mode, 30 min at RT
Description: cAMP Detection Kit, Cisbio (Cat #62AM4PEJ) The cell line was constructed by WuXi. 2. Methods • a) The compound source plate preparation: • The reference 7-37 was diluted from 500 nM, 4-fold, 10 points in DMSO using Bravo. […]
List of EC50 values.

COMPOUND | TESTED SYSTEM | EC50 / nM
Cc1n[nH]c2c(Cl)cc(NC(=O)c3ccc4c(c3)nc(CN3CC=C(c5cccc6c5OC(C)(c5ccc(Cl)cc5F)O6)C[C@@H]3C)n4CC3CCO3)cc12 (stereo partly drawn) | GLP-1R (Homo sapiens, UniProt P43220) | 1.07
Cc1n[nH]c2ccc(C(=O)Nc3ccc4c(c3)nc(CN3CC=C(c5cccc(OCc6ccc(Cl)cc6F)n5)CC3)n4C[C@@H]3CCO3)c(F)c12 | GLP-1R (Homo sapiens, UniProt P43220) | 3.29
CCn1cncc1Cn1c(Cc2c(F)cc(-c3cccc4c3O[C@](C)(c3ccc(Cl)cn3)O4)cc2F)nc2cc(NC(=O)c3cc(F)c4[nH]nc(C)c4c3)ccc21 | GLP-1R (Homo sapiens, UniProt P43220) | 3.1
O=C(NCc1ccc2[nH][nH]c(=O)c2c1)c1ccc2c(c1)nc(CN1CCC(c3cccc(OCc4ccc(Cl)cc4F)n3)CC1)n2C[C@@H]1CCO1 | GLP-1R (Homo sapiens, UniProt P43220) | 9.04
N#Cc1ccc(COc2cccc(C3=CCN(Cc4nc5cc(C(=O)Nc6cc(F)c7[nH]ncc7c6)ccc5n4C[C@@H]4CCO4)CC3)n2)c(F)c1 | GLP-1R (Homo sapiens, UniProt P43220) | 1.06
Cc1cc(C(=O)Nc2ccc3c(c2)nc(CN2CCC(c4cccc5c4OC(C)(c4ccc(Cl)cc4F)O5)CC2)n3C[C@@H]2CCO2)cc2c1NC(=O)C21CC1 (stereo partly drawn) | GLP-1R (Homo sapiens, UniProt P43220) | 0.54

----------
List of EC50 values.
TESTED SYSTEM: UniProtKB P43220
MEASUREMENT DESCRIPTION: GLP-1R agonist cAMP stimulation assay (HTRF cAMP)
TEST PARAMETERS: HEK293 cell line expressing GLP-1 target; HTRF cAMP agonist mode, 30 min at RT

COMPOUND | EC50, nM
Cc1n[nH]c2c(F)cc(NC(=O)c3ccc4c(c3)nc(CN3CC=C(c5cccc(OCc6ccc(Cl)cc6F)n5)CC3)n4C[C@@H]3CCO3)cc12 | 0.59
O=C(Nc1ccc2c(c1)nc(CN1CC=C(c3cccc(OCc4ccc(Cl)cc4F)n3)CC1)n2C[C@@H]1CCO1)c1ccc2[nH]nnc2c1 | 0.31
Cc1n[nH]c2c(C)cc(NC(=O)c3ccc4c(c3)nc(CN3CC=C(c5cccc(OCc6ccc(Cl)cc6F)n5)CC3)n4C[C@@H]3CCO3)cc12 | 0.6
O=C(Nc1ccc2nc(CN3CC=C(c4cccc(OCc5ccc(Cl)cc5F)n4)CC3)n(C[C@@H]3CCO3)c2c1)c1cc(C(F)(F)F)c2c(c1)C1(CC1)C(=O)N2 | 3.87
Cc1n[nH]c2ccc(C(=O)Nc3ccc4c(c3)nc(C(F)(F)N3CC=C(c5cccc(OCc6ccc(Cl)cc6F)n5)CC3)n4C[C@@H]3CCO3)cc12 | 15.1
Cc1n[nH]c2c(C)cc(C(=O)Nc3ccc4c(c3)nc(CN3CC=C(c5cccc6c5O[C@@](C)(c5ccc(Cl)cc5F)O6)CC3)n4CC3CCO3)cc12 (some centres unmarked) | 0.08
O=C(Nc1ccc2c(c1)nc(CN1CC=C(c3cccc(OCc4ccc(Cl)cc4F)n3)CC1)n2C[C@@H]1CCO1)c1cc(C(F)(F)F)c2[nH]ncc2c1 | 2.96
Cc1n[nH]c2c(F)cc(NC(=O)c3ccc4c(c3)nc(CN3CCC(c5cccc(OCc6ccc(C#N)cc6F)n5)CC3)n4C[C@@H]3CCO3)cc12 | 0.18
